PROCEDURE_TEXT: Maximal tolerated dose in mice, IP administration
RECORDED_CONDITIONS: mouse, in vivo, read-out: maximal tolerated dose (maximum dose that caused no deaths within 72 hours)
OUTCOME_MEASURE: MTD at 72 h (mg/kg)
Entry rule: numbers only, all in mg/kg.

Query: Please report the measured MTD at 72 h for C/C=C/C=C/C=C/C1=CC2=CC(=O)C(C)(OC(=O)CC(C)O)C(=O)C23OC3O1 (centres unmarked) [Compound A]
Reply: 10
